test system: pulmonary fibrosis; assay: Pulmonary toxicity (pulmonary fibrosis) in mice; conditions: ICR mice, 5 mg/kg i.p. once a day for 10 days; points 0, 1, 2, 4, 6
The entries below come with measured Grade: Total score of pulmonary fibrosis/total number of samples (%) values attached.
experimental-readout: Grade: Total score of pulmonary fibrosis/total number of samples (%)

compound: CCCCNCCCN(C)CCCNC(=O)c1csc(-c2csc(CCNC(=O)C(NC(=O)C(C)C(O)C(C)NC(=O)C(NC(=O)c3nc(C(CC(N)=O)NCC(N)C(=O)NC(C)C)nc(N)c3C)C(OC3OC(CO)C(O)C(O)C3OC3OC(CO)C(O)C(OC(N)=O)C3O)c3cnc[nH]3)C(C)O)n2)n1 (stereo not drawn)
reading: 48
--
compound: Cc1c(N)nc(C(CC(N)=O)NCC(N)C(=O)NCCCNC(C)c2ccccc2)nc1C(=O)NC(C(=O)NC(C)C(O)C(C)C(=O)NC(C(=O)NCCc1nc(-c2nc(C(=O)NCCC[N+](C)(C)CCCN(Cc3ccccc3)Cc3ccccc3)cs2)cs1)C(C)O)C(OC1OC(CO)C(O)C(O)C1OC1OC(CO)C(O)C(OC(N)=O)C1O)c1cnc[nH]1 (stereo not drawn)
reading: 0
--
compound: Cc1c(N)nc(C(CC(N)=O)NCC(N)C(=O)NCCCNC(C)c2ccccc2)nc1C(=O)NC(C(=O)NC(C)C(O)C(C)C(=O)NC(C(=O)NCCc1nc(-c2nc(C(=O)NCCCN(C)CCCN(Cc3ccc(OCc4ccccc4)c(OCc4ccccc4)c3)Cc3ccc(OCc4ccccc4)c(OCc4ccccc4)c3)cs2)cs1)C(C)O)C(OC1OC(CO)C(O)C(O)C1OC1OC(CO)C(O)C(OC(N)=O)C1O)c1cnc[nH]1 (stereo not drawn)
reading: 0

* * *

test system: pulmonary fibrosis; experiment: Pulmonary toxicity (pulmonary fibrosis) in mice; details: ICR mice, 5 mg/kg i.p. once a day for 10 days, 5 weeks observation; mice with fibrosis/total
experimental-readout: Incidence: Number of mice with pulmonary fibrosis

compound: CCCCN(CCCC)CCCNC(=O)C(N)CNC(CC(N)=O)c1nc(N)c(C)c(C(=O)NC(C(=O)NC(C)C(O)C(C)C(=O)NC(C(=O)NCCc2nc(-c3nc(C(=O)NCCC[N+](C)(C)CCCN(Cc4ccccc4)Cc4ccccc4)cs3)cs2)C(C)O)C(OC2OC(CO)C(O)C(O)C2OC2OC(CO)C(O)C(OC(N)=O)C2O)c2cnc[nH]2)n1 (stereo not drawn) [Compound 54]
target-system: pulmonary fibrosis
reading: 0/9

compound: CCCCCCCCNC(=O)C(N)CNC(CC(N)=O)c1nc(N)c(C)c(C(=O)NC(C(=O)NC(C)C(O)C(C)C(=O)NC(C(=O)NCCc2nc(-c3nc(C(=O)NCCC[N+](C)(C)CCCN(Cc4ccccc4)Cc4ccccc4)cs3)cs2)C(C)O)C(OC2OC(CO)C(O)C(O)C2OC2OC(CO)C(O)C(OC(N)=O)C2O)c2cnc[nH]2)n1 (stereo not drawn) [Compound 53]
target-system: pulmonary fibrosis
reading: 0/9

compound: Cc1c(N)nc(C(CC(N)=O)NCC(N)C(=O)NCCCNC(C)c2ccccc2)nc1C(=O)NC(C(=O)NC(C)C(O)C(C)C(=O)NC(C(=O)NCCc1nc(-c2nc(C(=O)NCCCN(C)CCCNCCc3ccc(Cl)cc3)cs2)cs1)C(C)O)C(OC1OC(CO)C(O)C(O)C1OC1OC(CO)C(O)C(OC(N)=O)C1O)c1cnc[nH]1 (stereo not drawn) [Compound 43]
target-system: pulmonary fibrosis
reading: 0/1

* * *

tested on: pulmonary fibrosis; assay: Pulmonary toxicity (pulmonary fibrosis) in mice; conditions: ICR mice, 5 mg/kg i.p. once a day for 10 days, 5 weeks observation
experimental-readout: Incidence: Number of mice with pulmonary fibrosis (%)

compound: Cc1c(N)nc(C(CC(N)=O)NCC(N)C(=O)NCCC[N+](C)(CCCN(Cc2ccccc2)Cc2ccccc2)Cc2ccccc2)nc1C(=O)NC(C(=O)NC(C)C(O)C(C)C(=O)NC(C(=O)NCCc1nc(-c2nc(C(=O)NCCC[N+](C)(CCCN(Cc3ccccc3)Cc3ccccc3)Cc3ccccc3)cs2)cs1)C(C)O)C(OC1OC(CO)C(O)C(O)C1OC1OC(CO)C(O)C(OC(N)=O)C1O)c1cnc[nH]1 (stereo not drawn)
reading: 0%

compound: Cc1c(N)nc(C(CC(N)=O)NCC(N)C(=O)NCCCNC(C)c2ccccc2)nc1C(=O)NC(C(=O)NC(C)C(O)C(C)C(=O)NC(C(=O)NCCc1nc(-c2nc(C(=O)NCCC[N+](C)(CCCN(Cc3ccccc3)Cc3ccccc3)Cc3ccccc3)cs2)cs1)C(C)O)C(OC1OC(CO)C(O)C(O)C1OC1OC(CO)C(O)C(OC(N)=O)C1O)c1cnc[nH]1 (stereo not drawn)
reading: 0%

compound: CCCCCCCCNC(=O)C(N)CNC(CC(N)=O)c1nc(N)c(C)c(C(=O)NC(C(=O)NC(C)C(O)C(C)C(=O)NC(C(=O)NCCc2nc(-c3nc(C(=O)NCCC[N+](CC)(CC)CCCN(Cc4ccccc4)Cc4ccccc4)cs3)cs2)C(C)O)C(OC2OC(CO)C(O)C(O)C2OC2OC(CO)C(O)C(OC(N)=O)C2O)c2cnc[nH]2)n1 (stereo not drawn)
reading: 0%

* * *

system: pulmonary fibrosis; experiment: Pulmonary toxicity (pulmonary fibrosis) in mice; conditions: ICR mice, 5 mg/kg i.p. once a day for 10 days, 5 weeks observation
The entries below come with measured Incidence: Number of mice with pulmonary fibrosis (%) values attached.
experimental-readout: Incidence: Number of mice with pulmonary fibrosis (%)

compound: CCCCCCCCNC(=O)C(N)CNC(CC(N)=O)c1nc(N)c(C)c(C(=O)NC(C(=O)NC(C)C(O)C(C)C(=O)NC(C(=O)NCCc2nc(-c3nc(C(=O)NCCCN(C)CCCNCC4CCCCCCC4)cs3)cs2)C(C)O)C(OC2OC(CO)C(O)C(O)C2OC2OC(CO)C(O)C(OC(N)=O)C2O)c2cnc[nH]2)n1 (stereo not drawn)
measurement-units: %
reading: 0

compound: CC[N+](CC)(CCCNC(=O)c1csc(-c2csc(CCNC(=O)C(NC(=O)C(C)C(O)C(C)NC(=O)C(NC(=O)c3nc(C(CC(N)=O)NCC(N)C(=O)NCCCNC(C)c4ccccc4)nc(N)c3C)C(OC3OC(CO)C(O)C(O)C3OC3OC(CO)C(O)C(OC(N)=O)C3O)c3cnc[nH]3)C(C)O)n2)n1)CCCN(Cc1ccccc1)Cc1ccccc1 (stereo not drawn)
measurement-units: %
reading: 0

compound: Cc1c(N)nc(C(CC(N)=O)NCC(N)C(=O)NCCCN(C)CCCNCCc2ccc(Cl)cc2)nc1C(=O)NC(C(=O)NC(C)C(O)C(C)C(=O)NC(C(=O)NCCc1nc(-c2nc(C(=O)NCCCN(C)CCCNCCc3ccc(Cl)cc3)cs2)cs1)C(C)O)C(OC1OC(CO)C(O)C(O)C1OC1OC(CO)C(O)C(OC(N)=O)C1O)c1cnc[nH]1 (stereo not drawn)
measurement-units: %
reading: 0

* * *

tested on: pulmonary fibrosis; assay: Pulmonary toxicity (pulmonary fibrosis) in mice; conditions: versus Bleomycin Complex
The entries below come with measured Ratio (by comparison with "Bleomycin Complex") values attached.
experimental-readout: Ratio (by comparison with "Bleomycin Complex")

compound: Cc1c(N)nc(C(CC(N)=O)NCC(N)C(=O)NC(C)C)nc1C(=O)NC(C(=O)NC(C)C(O)C(C)C(=O)NC(C(=O)NCCc1nc(-c2nc(C(=O)NCCCNC(C)c3ccccc3)cs2)cs1)C(C)O)C(OC1OC(CO)C(O)C(O)C1OC1OC(CO)C(O)C(OC(N)=O)C1O)c1cnc[nH]1 (stereo not drawn)
reading: 0.27

compound: CCCCN(CCCC)CCCNC(=O)C(N)CNC(CC(N)=O)c1nc(N)c(C)c(C(=O)NC(C(=O)NC(C)C(O)C(C)C(=O)NC(C(=O)NCCc2nc(-c3nc(C(=O)NCCC[N+](C)(C)CCCN(Cc4ccccc4)Cc4ccccc4)cs3)cs2)C(C)O)C(OC2OC(CO)C(O)C(O)C2OC2OC(CO)C(O)C(OC(N)=O)C2O)c2cnc[nH]2)n1 (stereo not drawn)
reading: 0

compound: CCCCNCCCN(C)CCCNC(=O)c1csc(-c2csc(CCNC(=O)C(NC(=O)C(C)C(O)C(C)NC(=O)C(NC(=O)c3nc(C(CC(N)=O)NCC(N)C(=O)NCCCN(C)CCCNCCCC)nc(N)c3C)C(OC3OC(CO)C(O)C(O)C3OC3OC(CO)C(O)C(OC(N)=O)C3O)c3cnc[nH]3)C(C)O)n2)n1 (stereo not drawn)
reading: 0.32

compound: Cc1c(N)nc(C(CC(N)=O)NCC(N)C(=O)NCCCNC(C)c2ccccc2)nc1C(=O)NC(C(=O)NC(C)C(O)C(C)C(=O)NC(C(=O)NCCc1nc(-c2nc(C(=O)NCCCNC(C)c3ccccc3)cs2)cs1)C(C)O)C(OC1OC(CO)C(O)C(O)C1OC1OC(CO)C(O)C(OC(N)=O)C1O)c1cnc[nH]1 (stereo not drawn)
reading: 0.05

compound: Cc1c(N)nc(C(CC(N)=O)NCC(N)C(=O)NCCCNC(C)c2ccccc2)nc1C(=O)NC(C(=O)NC(C)C(O)C(C)C(=O)NC(C(=O)NCCc1nc(-c2nc(C(=O)NCCCN(C)CCCNCCc3ccc(Cl)cc3)cs2)cs1)C(C)O)C(OC1OC(CO)C(O)C(O)C1OC1OC(CO)C(O)C(OC(N)=O)C1O)c1cnc[nH]1 (stereo not drawn)
reading: 0

compound: CCCCCCCCNC(=O)C(N)CNC(CC(N)=O)c1nc(N)c(C)c(C(=O)NC(C(=O)NC(C)C(O)C(C)C(=O)NC(C(=O)NCCc2nc(-c3nc(C(=O)NCCC[N+](C)(CCCN(Cc4ccccc4)Cc4ccccc4)Cc4ccccc4)cs3)cs2)C(C)O)C(OC2OC(CO)C(O)C(O)C2OC2OC(CO)C(O)C(OC(N)=O)C2O)c2cnc[nH]2)n1 (stereo not drawn)
reading: 0

compound: CC[N+](CC)(CCCNC(=O)c1csc(-c2csc(CCNC(=O)C(NC(=O)C(C)C(O)C(C)NC(=O)C(NC(=O)c3nc(C(CC(N)=O)NCC(N)C(=O)NCCCNC(C)c4ccccc4)nc(N)c3C)C(OC3OC(CO)C(O)C(O)C3OC3OC(CO)C(O)C(OC(N)=O)C3O)c3cnc[nH]3)C(C)O)n2)n1)CCCN(Cc1ccccc1)Cc1ccccc1 (stereo not drawn)
reading: 0

compound: Cc1c(N)nc(C(CC(N)=O)NCC(N)C(=O)NCCCNC(C)c2ccccc2)nc1C(=O)NC(C(=O)NC(C)C(O)C(C)C(=O)NC(C(=O)NCCc1nc(-c2nc(C(=O)NCCCN(C)CCCNCC3CCCCCCC3)cs2)cs1)C(C)O)C(OC1OC(CO)C(O)C(O)C1OC1OC(CO)C(O)C(OC(N)=O)C1O)c1cnc[nH]1 (stereo not drawn)
reading: 0

compound: Cc1c(N)nc(C(CC(N)=O)NCC(N)C(=O)NCCCN(C)CCCNCCc2ccc(Cl)cc2)nc1C(=O)NC(C(=O)NC(C)C(O)C(C)C(=O)NC(C(=O)NCCc1nc(-c2nc(C(=O)NCCCN(C)CCCNCCc3ccc(Cl)cc3)cs2)cs1)C(C)O)C(OC1OC(CO)C(O)C(O)C1OC1OC(CO)C(O)C(OC(N)=O)C1O)c1cnc[nH]1 (stereo not drawn)
reading: 0

compound: CCCCN(CCCC)CCCNC(=O)C(N)CNC(CC(N)=O)c1nc(N)c(C)c(C(=O)NC(C(=O)NC(C)C(O)C(C)C(=O)NC(C(=O)NCCc2nc(-c3nc(C(=O)NCCCNC(C)c4ccccc4)cs3)cs2)C(C)O)C(OC2OC(CO)C(O)C(O)C2OC2OC(CO)C(O)C(OC(N)=O)C2O)c2cnc[nH]2)n1 (stereo not drawn)
reading: 0

compound: CCCCN(CCCC)CCCNC(=O)C(N)CNC(CC(N)=O)c1nc(N)c(C)c(C(=O)NC(C(=O)NC(C)C(O)C(C)C(=O)NC(C(=O)NCCc2nc(-c3nc(C(=O)NCCC[N+](CC)(CC)CCCN(Cc4ccccc4)Cc4ccccc4)cs3)cs2)C(C)O)C(OC2OC(CO)C(O)C(O)C2OC2OC(CO)C(O)C(OC(N)=O)C2O)c2cnc[nH]2)n1 (stereo not drawn)
reading: 0

compound: Cc1c(N)nc(C(CC(N)=O)NCC(N)C(=O)NCCCNC(C)c2ccccc2)nc1C(=O)NC(C(=O)NC(C)C(O)C(C)C(=O)NC(C(=O)NCCc1nc(-c2nc(C(=O)NCCCN(C)CCCN(Cc3ccc(OCc4ccccc4)c(OCc4ccccc4)c3)Cc3ccc(OCc4ccccc4)c(OCc4ccccc4)c3)cs2)cs1)C(C)O)C(OC1OC(CO)C(O)C(O)C1OC1OC(CO)C(O)C(OC(N)=O)C1O)c1cnc[nH]1 (stereo not drawn)
reading: 0

These data points were gathered from patent US4472304A.
